The reported measurements were obtained from the supplement of paper PMC11908140.

B1: library; numbered along this chain (parent)
chain: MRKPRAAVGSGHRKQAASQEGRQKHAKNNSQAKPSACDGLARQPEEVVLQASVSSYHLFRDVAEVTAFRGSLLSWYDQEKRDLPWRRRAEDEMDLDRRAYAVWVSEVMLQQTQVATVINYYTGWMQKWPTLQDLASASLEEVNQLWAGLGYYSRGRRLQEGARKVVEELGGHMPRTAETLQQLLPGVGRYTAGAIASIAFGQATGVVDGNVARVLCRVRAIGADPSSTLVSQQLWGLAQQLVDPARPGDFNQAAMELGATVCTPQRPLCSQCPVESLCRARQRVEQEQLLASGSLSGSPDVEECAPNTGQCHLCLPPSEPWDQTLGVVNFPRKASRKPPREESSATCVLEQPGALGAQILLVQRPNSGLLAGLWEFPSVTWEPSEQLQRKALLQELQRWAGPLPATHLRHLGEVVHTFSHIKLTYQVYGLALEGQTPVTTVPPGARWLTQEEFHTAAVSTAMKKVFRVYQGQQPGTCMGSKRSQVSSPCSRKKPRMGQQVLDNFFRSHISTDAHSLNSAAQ

Variants of: B1
Assay: 8OG:A repair function score (normalized; synonymous = 0, nonsense = -1) (normalized log-likelihood score); higher = more repair activity (WT-like);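 also: cells sorted at 72 h after reporter transfection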
Details: with 8OG:A DNA repair reporter (GFP) in HEK-293 MUTYH KO cells
Reported 8OG:A repair function score values are given for each entry in this list.
quantityName: 8OG:A repair function score

In [3]: df
Out[3]:
    variantid    number
 0      G297Y   -0.0582
 1      Q363D    -0.431
 2      G155Q    -0.682
 3      L370G    -0.609
 4      H312T    -0.112
 5      P494E    0.0133
 6      S105V    -0.566
 7      C347W     -1.21
 8      T511L   -0.0126
 9      Y190I    -0.823
10      A101G    -0.024
11      L392W     -1.27
12      L215S    -0.957
13      T511D   -0.0938
14      Q473C  6.68e-05
15      Q252A    -0.658
16      V327G     -0.53
17      E395P    -0.546
18      M108Y    -0.819
19      T417H    -0.254
20      D208P     -1.04
21       S52K    0.0066
